study system: purified caspase-14 (Homo sapiens, UniProt P31944)
Construct: human caspase-14 was purified as a heterodimer comprising a large subunit (17 KDa) and a small subunit (11 KDa); from tissue; host or cells: human heel stratum corneum (cornified cells)
Sequence (P31944 6-146 limits assumed): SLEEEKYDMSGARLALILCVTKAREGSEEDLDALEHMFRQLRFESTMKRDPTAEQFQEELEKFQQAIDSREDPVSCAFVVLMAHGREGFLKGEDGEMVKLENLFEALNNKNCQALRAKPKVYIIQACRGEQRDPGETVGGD
Sequence (P31944 153-242 limits assumed): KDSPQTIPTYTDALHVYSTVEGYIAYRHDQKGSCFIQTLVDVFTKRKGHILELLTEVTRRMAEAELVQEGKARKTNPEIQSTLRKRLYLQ
procedure text: Caspase-14 activity inhibitor assay with WEHD-MCA substrate
Type: biochemical
details: WEHD-MCA substrate, 1.3 M sodium citrate, 5 mM DTT; tested concentrations 5, 2.5 and 1.25 μM
* marks the point of attachment. Cbz = O=C(OCc1ccccc1)*; CH2F = FC*
experimental readout: inhibiting effect against caspase-14 activity (residual enzyme activity)

Exercise: Can you look up the measured inhibiting effect against caspase-14 activity (residual enzyme activity) of IETD-FMK: caspase-8 inhibitor (Cbz-IETD-CH2F; SMILES CC[C@H](C)[C@H](NC(=O)OCc1ccccc1)C(=O)N[C@@H](CCC(=O)O)C(=O)N[C@H](C(=O)N[C@@H](CC(=O)O)C(=O)CF)[C@@H](C)O) for me?
Solution: exhibited sensitivity

Exercise: Can you look up the measured inhibiting effect against caspase-14 activity (residual enzyme activity) of LEHD-FMK: caspase-9 inhibitor (Cbz-LEHD-CH2F; SMILES CC(C)C[C@H](NC(=O)OCc1ccccc1)C(=O)N[C@@H](CCC(=O)O)C(=O)N[C@@H](Cc1c[nH]cn1)C(=O)N[C@@H](CC(=O)O)C(=O)CF) for me?
Solution: exhibited sensitivity

Exercise: Can you look up the measured inhibiting effect against caspase-14 activity (residual enzyme activity) of VDVAD-FMK: caspase-2 inhibitor (Cbz-VDVAD-CH2F; SMILES CC(C)[C@H](NC(=O)OCc1ccccc1)C(=O)N[C@@H](CC(=O)O)C(=O)N[C@H](C(=O)N[C@@H](C)C(=O)N[C@@H](CC(=O)O)C(=O)CF)C(C)C) for me?
Solution: exhibited sensitivity
